Tested on: HepaRG spheroids
test-summary: Combined HCI (HCS) and cellular ATP 3D assay in HepaRG spheroids
protocol-conditions: HepaRG; all endpoints; cut-off <100x Avg Cmaxu
measurement-kind: HepaRG <100x Avg Cmaxu All

Sample records with HepaRG <100x Avg Cmaxu All:
INSERT INTO results (molecule, meas_value) VALUES
  ('CCN(CC)CC#CCOC(=O)C(O)(c1ccccc1)C1CCCCC1 (stereo not shown) [oxybutynin]', '-ve'),
  ('CCc1nn(CCCN2CCN(c3cccc(Cl)c3)CC2)c(=O)n1CCOc1ccccc1 [nefazodone, reference compound]', '-ve'),
  ('Cc1c(C)c2c(c(C)c1O)CCC(C)(COc1ccc(CC3SC(=O)NC3=O)cc1)O2 (stereo not shown) [troglitazone, reference compound]', '-ve'),
  ('[H]/N=C(/N)N[C@H]1[C@H](O)[C@@H](O)[C@H](O[C@@H]2O[C@@H](C)[C@](O)(C=O)[C@H]2O[C@@H]2O[C@@H](CO)[C@H](O)[C@@H](O)[C@@H]2NC)[C@@H](N/C(N)=N\[H])[C@@H]1O [streptomycin, reference compound]', '+ve (<100x Avg Cmaxu)'),
  ('CC[C@H]1OC(=O)[C@H](C)[C@@H](O[C@H]2C[C@@](C)(OC)[C@@H](O)[C@H](C)O2)[C@H](C)[C@@H](O[C@@H]2O[C@H](C)C[C@H](N(C)C)[C@H]2O)[C@](C)(O)C[C@@H](C)C(=O)[C@H](C)[C@@H](O)[C@]1(C)O [erythromycin]', '+ve (<100x Avg Cmaxu)'),
  ('Clc1ccccc1CN1CCc2sccc2C1 [ticlopidine]', '-ve'),
  ('CCOC(=O)CN[C@@H](C(=O)N1CC[C@H]1C(=O)NCc1ccc(/C(N)=N\O)cc1)C1CCCCC1 [ximelagatran]', '-ve'),
  ('CCN(CC)CCNC(=O)c1c(C)[nH]c(/C=C2\C(=O)Nc3ccc(F)cc32)c1C [sunitinib]', '+ve (<100x Avg Cmaxu)'),
  ('CC(C)C(=O)Nc1ccc([N+](=O)[O-])c(C(F)(F)F)c1 [flutamide, reference compound]', '+ve (<100x Avg Cmaxu)');

From here, focus on the item given below.
*Q* Please indicate HepaRG <100x Avg Cmaxu All recorded for CS(=O)(=O)CCNCc1ccc(-c2ccc3ncnc(Nc4ccc(OCc5cccc(F)c5)c(Cl)c4)c3c2)o1 [lapatinib]
*A* +ve (<100x Avg Cmaxu)

The reported measurements were obtained from paper PMC7395068.
